measurement description: Oral bioavailability of hydrocodone conjugates in rats, LC/MS/MS
condition context: male, Sprague-Dawley, rat, plasma, po, 25 mg/kg
assay metric: concentration at 4 h (ng/mL)
Give the number; ng/mL is assumed, so skip it.

Input line: In one line, give reported concentration at 4 h of the entry COc1ccc2c3c1O[C@H]1C(=O)CC[C@H]4[C@@H](C2)N(C)CC[C@]314 [Hydrocodone, reference compound] .
Output line: 57.8

* * *

measurement description: Intravenous bioavailability of hydrocodone conjugates in rats, LC/MS/MS
condition context: intravenous, 1 mg/kg dose, 15 Minutes
Where a SMILES comes first, the peptide text is derived from it. The star is where a group is joined. X1 = COc1ccc2c3c1O[C@H]1C(O*)=CC[C@H]4[C@@H](C2)N(C)CC[C@]314
A collection of molecules and their measured hydrocodone plus hydromorphone concentration
Give the number; ng/mL is assumed, so skip it.

In the examples that follow, each entry is paired with its recorded hydrocodone plus hydromorphone concentration.
molecule="CC[C@H](C)[C@H](NC(=O)[C@H](Cc1ccccc1)NC(=O)[C@H](Cc1ccccc1)NC(=O)[C@H](Cc1ccc(O)cc1)NC(=O)[C@@H](N)Cc1ccc(O)cc1)C(=O)OC1=CC[C@H]2[C@H]3Cc4ccc(OC)c5c4[C@@]2(CCN3C)[C@H]1O5 [YYFFI[SEQ ID NO: 8]-HC] (H-YYFFI-X1)" units_symbol=ng/mL readout_value=28
molecule="CC[C@H](C)[C@H](NC(=O)[C@H](Cc1ccc(O)cc1)NC(=O)[C@@H](N)Cc1ccc(O)cc1)C(=O)OC1=CC[C@H]2[C@H]3Cc4ccc(OC)c5c4[C@@]2(CCN3C)[C@H]1O5 [YYI-HC, Tyr-Tyr-Ile-Hydrocodone]" units_symbol=ng/mL readout_value=13

Input line: In one line, give reported hydrocodone plus hydromorphone concentration of the entry CC[C@H](C)[C@H](NC(=O)[C@H](Cc1ccccc1)NC(=O)[C@H](Cc1ccccc1)NC(=O)[C@H](CCC(=O)O)NC(=O)[C@@H](N)CCC(=O)O)C(=O)OC1=CC[C@H]2[C@H]3Cc4ccc(OC)c5c4[C@@]2(CCN3C)[C@H]1O5 [EEFFI[SEQ ID NO: 5]-HC] (H-EEFFI-X1) .
Output line: 76

Input line: In one line, give reported hydrocodone plus hydromorphone concentration of the entry COc1ccc2c3c1O[C@H]1C(OC(=O)[C@H](Cc4ccccc4)NC(=O)[C@H](Cc4ccccc4)NC(=O)[C@H](Cc4ccccc4)NC(=O)[C@H](CCC(=O)O)NC(=O)[C@@H](N)CCC(=O)O)=CC[C@H]4[C@@H](C2)N(C)CC[C@]314 [EEFFF[SEQ ID NO: 3]-HC] (H-EEFFF-X1) .
Output line: 77
